IC50 reference
- SYSTEM NAME: CRF1 (Homo sapiens)
- Construct: endogenously expresses functional CRF1; endogenous in cells
- Sequence (P34998 24-415): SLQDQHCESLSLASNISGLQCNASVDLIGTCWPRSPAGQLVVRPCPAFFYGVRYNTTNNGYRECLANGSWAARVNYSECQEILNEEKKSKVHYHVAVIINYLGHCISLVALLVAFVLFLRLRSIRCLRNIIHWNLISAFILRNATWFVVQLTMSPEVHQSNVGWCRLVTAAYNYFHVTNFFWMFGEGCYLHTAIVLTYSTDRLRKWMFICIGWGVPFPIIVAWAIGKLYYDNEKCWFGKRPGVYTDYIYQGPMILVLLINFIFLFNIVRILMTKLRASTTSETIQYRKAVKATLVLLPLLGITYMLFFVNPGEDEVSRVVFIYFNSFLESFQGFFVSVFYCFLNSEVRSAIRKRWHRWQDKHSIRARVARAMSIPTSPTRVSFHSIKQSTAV
- METHOD: CRF1 assessment of cAMP (HTRF cAMP assay) in Y-79 cells, antagonist mode
- EXPERIMENTAL SETUP: CRF1 cAMP screening, Y79 cells, against agonist
Where a SMILES comes first, the peptide text is derived from it. The star is where a group is joined. Palmitoyl = CCCCCCCCCCCCCCCC(=O)*

Here are 3 compounds together with their reported answers.
[[record]]
compound = "CCCCCCCCCCCCCCCC(=O)NCC(=O)N[C@@H](CO)C(=O)N[C@H](C(=O)N[C@@H](CCCNC(=N)N)C(=O)N[C@@H](C)C(=O)N[C@@H](CCCNC(=N)N)C(=O)N[C@H](C(=O)N[C@@H](C)C(=O)N[C@@H](CCCNC(=N)N)C(=O)N[C@@H](C)C(=O)N[C@@H](CCSC)C(N)=O)C(C)C)[C@@H](C)CC [Compound 64] (Palmitoyl-GSIRARVARAM-NH2)"
system_name = "CRF1 (Homo sapiens)"
reported_result = "1 to 5 µM"

[[record]]
compound = "CCCCCCCCCCCCCCCC(=O)NCC(=O)N[C@@H](CO)C(=O)N[C@H](C(=O)N[C@@H](CC(=O)O)C(=O)N[C@@H](CCCNC(=N)N)C(=O)N[C@@H](CC(C)C)C(=O)N[C@@H](CCCNC(=N)N)C(=O)N[C@@H](CCCCN)C(=O)N[C@@H](Cc1c[nH]c2ccccc12)C(=O)N[C@@H](CCSC)C(=O)N[C@@H](Cc1ccccc1)C(=O)N[C@@H](C)C(N)=O)[C@@H](C)O [Compound 37] (Palmitoyl-GSTDRLRKWMFA-NH2)"
system_name = "CRF1 (Homo sapiens)"
reported_result = "1 to 5 µM"

[[record]]
compound = "CCCCCCCCCCCCCCCC(=O)N[C@@H](CO)C(=O)N[C@H](C(=O)N[C@@H](CC(=O)O)C(=O)N[C@@H](CCCNC(=N)N)C(=O)N[C@@H](CC(C)C)C(=O)N[C@@H](CCCNC(=N)N)C(=O)N[C@@H](CCCCN)C(=O)N[C@@H](Cc1c[nH]c2ccccc12)C(=O)N[C@@H](CCSC)C(=O)N[C@@H](Cc1ccccc1)C(=O)N[C@H](C(N)=O)[C@@H](C)CC)[C@@H](C)O [Compound 33] (Palmitoyl-STDRLRKWMFI-NH2)"
system_name = "CRF1 (Homo sapiens)"
reported_result = "1 to 5 µM"


### Prompt Please provide the recorded IC50 for CCCCCCCCCCCCCCCC(=O)N[C@H](C(=O)N[C@@H](CC(=O)O)C(=O)N[C@@H](C)C(=O)N[C@@H](CC(C)C)C(=O)N[C@@H](CCCNC(=N)N)C(=O)N[C@@H](CCCCN)C(=O)N[C@@H](Cc1c[nH]c2ccccc12)C(=O)N[C@@H](CCSC)C(=O)N[C@@H](Cc1ccccc1)C(=O)N[C@H](C(N)=O)[C@@H](C)CC)[C@@H](C)O [Compound 46] (Palmitoyl-TDALRKWMFI-NH2) , tested on CRF1 (Homo sapiens).
### Response > 10 µM

### Prompt Please provide the recorded IC50 for CCCCCCCCCCCCCCCC(=O)N[C@H](C(=O)N[C@@H](CC(=O)O)C(=O)N[C@@H](CCCNC(=N)N)C(=O)N[C@@H](C)C(=O)N[C@@H](CCCNC(=N)N)C(=O)N[C@@H](CCCCN)C(=O)N[C@@H](Cc1c[nH]c2ccccc12)C(=O)N[C@@H](CCSC)C(=O)N[C@@H](Cc1ccccc1)C(=O)N[C@H](C(N)=O)[C@@H](C)CC)[C@@H](C)O [Compound 47] (Palmitoyl-TDRARKWMFI-NH2) , tested on CRF1 (Homo sapiens).
### Response 1 to 5 µM
